experiment: metabolic stability in mouse liver microsomes; format: in vitro ADME; conditions: mouse, liver microsomes; read-out: Liver Microsomes t1/2 (min), Mouse
Entries and their half-life values follow.
Outcome Measure: half-life (min)

INSERT INTO assay_data (cpd_smiles, unit_descriptor, data_value) VALUES
  ('C[C@H]1Cc2c([nH]c3cc(F)ccc23)[C@@]2(N1)C(=O)Nc1ccc(Cl)cc12', 'min', 53),
  ('C[C@H]1Cc2c([nH]c3cc(F)c(F)cc23)[C@@]2(N1)C(=O)Nc1ccc(Cl)cc12', 'min', 49.1),
  ('C[C@H]1Cc2c([nH]c3ccc(F)cc23)[C@@]2(N1)C(=O)Nc1ccc(Cl)cc12', 'min', 4.2),
  ('C[C@H]1Cc2c([nH]c3cc(Cl)c(F)cc23)[C@@]2(N1)C(=O)Nc1ccc(Cl)cc12', 'min', 49);

---

test: metabolic stability in human liver microsomes; type: in vitro ADME; conditions: human, liver microsomes; read-out: Liver Microsomes t1/2 (min), Human
Outcome Measure: half-life (min)

INSERT INTO assay_data (cpd_smiles, unit_descriptor, data_value) VALUES
  ('C[C@H]1Cc2c([nH]c3cc(Cl)c(F)cc23)[C@@]2(N1)C(=O)Nc1ccc(Cl)cc12', 'min', 76),
  ('C[C@H]1Cc2c([nH]c3ccc(F)cc23)[C@@]2(N1)C(=O)Nc1ccc(Cl)cc12', 'min', 10),
  ('C[C@H]1Cc2c([nH]c3cc(F)c(F)cc23)[C@@]2(N1)C(=O)Nc1ccc(Cl)cc12', 'min', 56.4),
  ('C[C@H]1Cc2c([nH]c3cc(F)ccc23)[C@@]2(N1)C(=O)Nc1ccc(Cl)cc12', 'min', 53.3);

---

experiment: aqueous solubility; format: physicochemical; settings: aqueous medium, pH 6.8, aqueous buffer
Outcome Measure: solubility

INSERT INTO assay_data (molecule, outcome_measure, data_value) VALUES
  ('CC1CCc2c([nH]c3ccccc23)C2(N1)C(=O)Nc1ccc(Br)cc12 (stereo not drawn)', 'solubility', '75 µM'),
  ('NCC(=O)N1CCn2c(nc(-c3ccccc3)c2Nc2ccc3c(c2)OCO3)C1 [Compound 18a]', 'solubility', '> 175 µM'),
  ('FC(F)(F)Oc1ccc(Nc2cc(Nc3nccn3-c3cccc(C(F)(F)F)c3)ncn2)cc1', 'solubility', '36 µM');

---

assay: in vivo PK in mouse; settings: in vivo, po, 25 mg/kg
Outcome Measure: bioavailability (%)

INSERT INTO measurements (compound, outcome_measure, data_value) VALUES
  ('CC1CCc2c([nH]c3ccccc23)C2(N1)C(=O)Nc1ccc(Br)cc12 (stereo not shown)', 'bioavailability', 59);

---

experiment: metabolic stability in human liver microsomes; assay type: in vitro ADME; details: intrinsic clearance; high clearance corresponds to low stability
Outcome Measure: Liver Microsomes CLint, Human

INSERT INTO measurements (cpd_smiles, outcome_measure, data_value) VALUES
  ('C[C@H]1Cc2c([nH]c3cc(F)c(F)cc23)[C@@]2(N1)C(=O)Nc1ccc(Cl)cc12', 'Liver Microsomes CLint, Human', 'Low'),
  ('C[C@H]1Cc2c([nH]c3cc(Cl)c(F)cc23)[C@@]2(N1)C(=O)Nc1ccc(Cl)cc12', 'Liver Microsomes CLint, Human', 'Low'),
  ('C[C@H]1Cc2c([nH]c3cc(F)ccc23)[C@@]2(N1)C(=O)Nc1ccc(Cl)cc12', 'Liver Microsomes CLint, Human', 'Low'),
  ('C[C@H]1Cc2c([nH]c3ccc(F)cc23)[C@@]2(N1)C(=O)Nc1ccc(Cl)cc12', 'Liver Microsomes CLint, Human', 'Med');

---

assay: cytotoxicity on HEp2 cells; assay type: cell-based; details: human
pEC50: −log10 of the molar value.
Outcome Measure: pEC50

INSERT INTO results (compound, outcome_measure, data_value) VALUES
  ('N[C@H]1CC[C@H](Nc2nc(Nc3ccc(C(=O)N4CCCCC4)cc3)c3ncn(-c4cccc(F)c4)c3n2)CC1 [Compound 2, purfalcamine]', 'pEC50', 5.14);

---

test: cytotoxicity on Huh7 cells; settings: human, Huh7 cells
pEC50: −log10 of the molar value.
Outcome Measure: pEC50

INSERT INTO assay_data (molecule, data_value) VALUES
  ('N[C@H]1CC[C@H](Nc2nc(Nc3ccc(C(=O)N4CCCCC4)cc3)c3ncn(-c4cccc(F)c4)c3n2)CC1 [Compound 2, purfalcamine]', 5.26);

---

test: metabolic stability in mouse liver microsomes; assay type: in vitro ADME; details: intrinsic clearance; high clearance corresponds to low stability
Outcome Measure: Liver Microsomes CLint, Mouse

INSERT INTO results (molecule, outcome_measure, data_value) VALUES
  ('C[C@H]1Cc2c([nH]c3cc(Cl)c(F)cc23)[C@@]2(N1)C(=O)Nc1ccc(Cl)cc12 [Compound 30]', 'Liver Microsomes CLint, Mouse', 'Low'),
  ('C[C@H]1Cc2c([nH]c3ccc(F)cc23)[C@@]2(N1)C(=O)Nc1ccc(Cl)cc12 [Compound 27]', 'Liver Microsomes CLint, Mouse', 'High'),
  ('C[C@H]1Cc2c([nH]c3cc(F)c(F)cc23)[C@@]2(N1)C(=O)Nc1ccc(Cl)cc12 [Compound 29]', 'Liver Microsomes CLint, Mouse', 'Low'),
  ('C[C@H]1Cc2c([nH]c3cc(F)ccc23)[C@@]2(N1)C(=O)Nc1ccc(Cl)cc12 [Compound 28]', 'Liver Microsomes CLint, Mouse', 'Low');

---

test: in vivo PK in mouse; settings: in vivo, po, 25 mg/kg
Outcome Measure: Cmax (nM)

INSERT INTO measurements (compound, data_value) VALUES
  ('CC1CCc2c([nH]c3ccccc23)C2(N1)C(=O)Nc1ccc(Br)cc12 (stereo not shown)', 1400);

---

Below, each entry is listed with its recorded IC50.
biological target: recombinant PfCDPK1 (Plasmodium falciparum); test: PfCDPK1 enzyme inhibition; assay type: biochemical; conditions: mean of two experiments; read-out: PfCDPK1 IC50
Sequence (P62344 whole entry): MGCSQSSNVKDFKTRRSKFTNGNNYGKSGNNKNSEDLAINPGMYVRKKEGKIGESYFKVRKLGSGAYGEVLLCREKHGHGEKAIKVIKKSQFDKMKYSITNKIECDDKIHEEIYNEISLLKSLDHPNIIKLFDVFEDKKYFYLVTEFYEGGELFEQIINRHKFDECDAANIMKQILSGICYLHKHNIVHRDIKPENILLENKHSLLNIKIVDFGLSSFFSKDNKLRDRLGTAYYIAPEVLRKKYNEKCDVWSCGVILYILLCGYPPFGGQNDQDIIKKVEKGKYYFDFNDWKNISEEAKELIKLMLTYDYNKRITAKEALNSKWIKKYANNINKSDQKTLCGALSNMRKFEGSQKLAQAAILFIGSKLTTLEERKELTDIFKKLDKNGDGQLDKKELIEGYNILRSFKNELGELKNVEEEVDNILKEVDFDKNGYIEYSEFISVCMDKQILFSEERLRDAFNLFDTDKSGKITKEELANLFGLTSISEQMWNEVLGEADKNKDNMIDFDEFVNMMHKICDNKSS
Outcome Measure: IC50

INSERT INTO assay_data (cpd_smiles, outcome_measure, data_value) VALUES
  ('N[C@H]1CC[C@H](Nc2nc(Nc3ccc(C(=O)N4CCCCC4)cc3)c3ncn(-c4cccc(C(=O)O)c4)c3n2)CC1', 'IC50', '71 nM'),
  ('N[C@H]1CC[C@H](Nc2nc(Nc3ccc(C(=O)N4CCCCC4)cc3)c3ncn(-c4ccc(C(=O)O)cc4)c3n2)CC1', 'IC50', '28 nM'),
  ('N[C@H]1CC[C@H](Nc2nc(Nc3ccc(C(=O)N4CCCCC4)cc3)c3ncn(-c4ccc5c(c4)OCO5)c3n2)CC1', 'IC50', '342 nM'),
  ('N[C@H]1CC[C@H](Nc2nc(Nc3ccc(C(=O)N4CCCCC4)cc3)c3ncn(-c4ccc(OCc5ccccc5)cc4)c3n2)CC1', 'IC50', '4040 nM');

---

tested on: P. falciparum 3D7; assay: P. falciparum 3D7 proliferation assay; type: cell-based, Plasmodium falciparum; conditions: Plasmodium falciparum, 3D7; piperidyl benzamides; mean of two experiments; read-out: P. falciparum 3D7 EC50
Outcome Measure: EC50 (nM)

INSERT INTO results (molecule, outcome_measure, data_value) VALUES
  ('O=C(Nc1cccc(Cl)c1)c1cc(N2CCC(N3CCCC3)CC2)cc(C(F)(F)F)c1 [Compound 11]', 'EC50', 134),
  ('CC1CCCN(C2CCN(c3cc(C(=O)Nc4cccc(C(F)(F)F)c4)cc(C(F)(F)F)c3)CC2)C1 (centres unmarked) [Compound 15]', 'EC50', 58),
  ('CC1CCN(C2CCN(c3cc(C(=O)Nc4cccc(Cl)c4)cc(C(F)(F)F)c3)CC2)CC1 [Compound 14]', 'EC50', 140),
  ('O=C(Nc1cccc(C(F)(F)F)c1)c1cc(N2CCC(N3CCCCC3)CC2)cc(C(F)(F)F)c1 [Compound 13]', 'EC50', 149),
  ('O=C(Nc1cccc(Cl)c1)c1cc(N2CCC(N3CCCCC3)CC2)cc(C(F)(F)F)c1 [Compound 12]', 'EC50', 97);

---

assay: cytotoxicity on CHO cells; assay type: cell-based; conditions: Chinese hamster
Outcome Measure: EC50 (µM)

INSERT INTO results (molecule, outcome_measure, data_value) VALUES
  ('N[C@H]1CC[C@H](Nc2nc(Nc3ccc(C(=O)N4CCCCC4)cc3)c3ncn(-c4cccc(F)c4)c3n2)CC1 [Compound 2, purfalcamine]', 'EC50', 12.3);

---

assay: in vivo; conditions: mouse, po
Outcome Measure: bioavailability

INSERT INTO assay_data (cpd_smiles, outcome_measure, data_value) VALUES
  ('C[C@H]1Cc2c([nH]c3cc(Cl)c(F)cc23)[C@@]2(N1)C(=O)Nc1ccc(Cl)cc12', 'bioavailability', '100%');
